Read-out: E-selectin (Homo sapiens)
ASSAY_TEXT: BSK_SAg_Eselectin: BioMAP Diversity Plus: SAg Assay for Eselectin Biomarker Activity (AID 2283091)
RUN_PARAMETERS: primary human HUVEC with PBMC; actives raise or lower the signal
The source made the active and inactive calls. How the source made its calls: active means hit-call score of the fitted dose curve at least 0.9, where 1 is the maximum; inactive means score below 0.9.
Give your call using only these classes: true (1) for active, false (0) for inactive

Recorded results for 5 compounds are shown here.
[[record]]
compound = "Nc1cc2c3c(c1)C(c1ccccc1)=N[C@@H](NC(=O)c1cccnc1)C(=O)N3CC2"
category = "true (1)"

[[record]]
compound = "COCCOCCO"
category = "false (0)"

[[record]]
compound = "c1ccc(OP(Oc2ccccc2)Oc2ccccc2)cc1"
category = "false (0)"

[[record]]
compound = "CCCCC(CC)COC(=O)c1c(Br)c(Br)c(Br)c(Br)c1C(=O)OCC(CC)CCCC (stereo not drawn)"
category = "false (0)"

[[record]]
compound = "c1cc2c3c(cccc3c1)CC2"
category = "false (0)"


In: Hey, what did the test say about CC(Cl)(Cl)C(=O)O ?
Out: false (0)

In: Hey, what did the test say about CCCN(CCC)c1c([N+](=O)[O-])cc(C(C)C)cc1[N+](=O)[O-] ?
Out: true (1)

In: Hey, what did the test say about COC(=O)C(F)(F)C(F)(F)OC(F)(C(F)(F)F)C(F)(F)OC(F)=C(F)F (stereo not drawn) ?
Out: false (0)

In: Hey, what did the test say about CCC1(c2ccccc2)C(=O)N=C(O)NC1=O (stereo not drawn) ?
Out: false (0)

In: Hey, what did the test say about O=C(O)C1C(C(=O)O)C2(Cl)C(Cl)=C(Cl)C1(Cl)C2(Cl)Cl (stereo not drawn) ?
Out: false (0)

----------
EXPERIMENTAL_TARGET: human CYP2C9, CYP2C9 (gene 1559) (UniProt P11712)
Sequence (P11712 whole entry, looked up): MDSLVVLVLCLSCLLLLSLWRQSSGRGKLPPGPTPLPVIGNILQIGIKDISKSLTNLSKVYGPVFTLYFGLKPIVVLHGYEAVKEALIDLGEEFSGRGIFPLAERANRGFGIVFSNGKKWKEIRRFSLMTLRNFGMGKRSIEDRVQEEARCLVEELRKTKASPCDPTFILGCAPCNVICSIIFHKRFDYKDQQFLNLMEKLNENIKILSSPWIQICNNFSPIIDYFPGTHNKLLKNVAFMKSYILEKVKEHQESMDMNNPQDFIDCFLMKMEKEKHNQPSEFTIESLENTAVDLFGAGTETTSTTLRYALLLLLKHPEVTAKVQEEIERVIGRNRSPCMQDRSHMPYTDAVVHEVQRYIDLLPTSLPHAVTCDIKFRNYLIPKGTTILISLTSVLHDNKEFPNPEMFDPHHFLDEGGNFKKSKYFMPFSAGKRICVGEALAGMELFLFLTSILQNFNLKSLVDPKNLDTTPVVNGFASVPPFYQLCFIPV
ASSAY_TEXT: NVS_ADME_hCYP2C9: NovaScreen (NVS) CYP450-related Enzyme Activity (ADME) Assay for human CYP2C9 (AID 2283108)
Inconclusive results are not listed. Calls of active or inactive are those of the source. The calls were made as follows: active = hit-call score of the fitted dose curve at least 0.9, where 1 is the maximum; inconclusive = response in the unintended direction; inactive = score below 0.9.
Exercise: state measured AC50 for each of the molecules provided.

[[record]]
molecule = "CCOP(=S)(Oc1ccc([N+](=O)[O-])cc1)c1ccccc1 (stereo not given)"
observable = "AC50"
result = "5.15 µM (active)"

[[record]]
molecule = "CCOP(=S)(OCC)SCn1nnc2ccccc2c1=O"
observable = "AC50"
result = "1.43 µM (active)"

[[record]]
molecule = "c1ccc2c(c1)Nc1ccccc1S2"
observable = "AC50"
result = "6.5 µM (active)"


Items follow; give AC50 for each.
1. CCCCN(CCCC)SN(C)C(=O)Oc1cccc2c1OC(C)(C)C2
2. CO/N=C(/C(=O)OC)c1ccccc1COc1ccccc1C

Out:
1: 16.8 µM (active); 2: 6.5 µM (active)

----------
System: SRD5A2 (gene 6716)
ASSAY_TEXT: CCTE_Deisenroth_5AR_NBTE_ratio: CCTE's 5alpha-reductase NanoBRET Target Engagement Assay - Ratio, Deisenroth Lab (AID 2284322)
RUN_PARAMETERS: actives raise or lower the signal
Active and inactive are the calls of the source. How the source made its calls: active means hit-call score of the fitted dose curve at least 0.9, where 1 is the maximum; inactive means score below 0.9.
Give your call using only these classes: t for active, f for inactive

Recorded results for 4 compounds are shown here.
[[record]]
compound = "O=P(OCC(Br)CBr)(OCC(Br)CBr)OCC(Br)CBr (stereo not given)"
category = "t"

[[record]]
compound = "ClC1=C(Cl)C2(Cl)C3C(Cl)C(Cl)CC3C1(Cl)C2(Cl)Cl (stereo not given)"
category = "f"

[[record]]
compound = "O=C(O)C1C(C(=O)O)C2(Cl)C(Cl)=C(Cl)C1(Cl)C2(Cl)Cl (stereo not given)"
category = "f"

[[record]]
compound = "CCOP(=S)(OCC)SCSCC"
category = "f"


// switching to the query compound
In: Hey, what did the test say about CCCN(CCC)c1c([N+](=O)[O-])cc(C(C)C)cc1[N+](=O)[O-] ?
Out: f

----------
EXPERIMENTAL_TARGET: Transcription factor Sp1 (Homo sapiens)
ASSAY_TEXT: ATG_Sp1_CIS: Attagene CIS-FACTORIAL HepG2 Assay for human Specificity Protein 1 (Sp1) (AID 2282961)
RUN_PARAMETERS: HepG2 Sp1 cis-reporter transcription, actives raise or lower the signal
Active and inactive are the calls of the source. Rule for the calls: active = hit-call score of the fitted dose curve at least 0.9, where 1 is the maximum; inactive = score below 0.9.
Give your call using only these classes: 1.0 for active, 0.0 for inactive

Recorded results for 8 compounds are shown here.
[[record]]
compound = "Cn1[nH]nnc1=S"
category = 0.0

[[record]]
compound = "CC(Cl)CN(C)C (stereo not given)"
category = 0.0

[[record]]
compound = "CC1(C)CN=C(NN=C(/C=C/c2ccc(C(F)(F)F)cc2)/C=C/c2ccc(C(F)(F)F)cc2)NC1"
category = 1.0

[[record]]
compound = "COP(=O)(CCC(=O)NCO)OC"
category = 0.0

[[record]]
compound = "CCOP(=O)(O)C(N)=O"
category = 0.0

[[record]]
compound = "CCOC(=O)c1ccccc1C(=O)OCC"
category = 0.0

[[record]]
compound = "CCCCC(CC)COP(=O)(Oc1ccccc1)Oc1ccccc1 (stereo not given)"
category = 1.0

[[record]]
compound = "CC(C)CBr"
category = 0.0


In: Hey, what did the test say about ClC(Cl)=C(c1ccc(Cl)cc1)c1ccccc1Cl ?
Out: 1.0

In: Hey, what did the test say about CN(C)C(=O)Cl ?
Out: 0.0

In: Hey, what did the test say about CC(=O)CCc1ccc2c(c1)OCO2 ?
Out: 0.0

In: Hey, what did the test say about CCOc1ccc(C(C)(C)COCc2cccc(Oc3ccccc3)c2)cc1 ?
Out: 0.0

In: Hey, what did the test say about COC(N)=O ?
Out: 0.0

In: Hey, what did the test say about CCC1(c2ccccc2)C(=O)N=C(O)NC1=O (stereo not given) ?
Out: 0.0

In: Hey, what did the test say about CCCCc1ccc(O)cc1 ?
Out: 0.0

----------
Read-out: Nuclear factor erythroid 2-related factor 2 (Homo sapiens) (UniProt Q16236)
Sequence (Q16236 whole entry, looked up): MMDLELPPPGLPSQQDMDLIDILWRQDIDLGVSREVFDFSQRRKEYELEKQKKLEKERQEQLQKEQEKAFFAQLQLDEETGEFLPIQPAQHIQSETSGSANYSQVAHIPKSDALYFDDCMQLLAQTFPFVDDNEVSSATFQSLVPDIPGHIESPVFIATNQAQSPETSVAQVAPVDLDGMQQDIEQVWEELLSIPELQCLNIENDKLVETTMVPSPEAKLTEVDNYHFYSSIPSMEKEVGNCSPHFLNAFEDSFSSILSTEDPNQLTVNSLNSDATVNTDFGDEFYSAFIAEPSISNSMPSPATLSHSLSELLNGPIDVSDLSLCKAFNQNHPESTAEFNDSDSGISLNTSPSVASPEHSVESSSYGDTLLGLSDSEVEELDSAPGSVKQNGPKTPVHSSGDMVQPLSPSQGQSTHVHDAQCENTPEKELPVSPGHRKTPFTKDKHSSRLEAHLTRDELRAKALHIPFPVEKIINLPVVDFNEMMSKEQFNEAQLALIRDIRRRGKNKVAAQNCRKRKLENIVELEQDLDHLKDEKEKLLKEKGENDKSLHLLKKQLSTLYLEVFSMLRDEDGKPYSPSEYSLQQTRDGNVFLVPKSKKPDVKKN
ASSAY_TEXT: LTEA_HepaRG_NFE2L2: Life Technologies and Expression Analysis (LTEA) Assay for Nuclear factor erythroid 2-related factor 2 (NFE2L2) Transcription Factor using HepaRG (AID 2283527)
RUN_PARAMETERS: mRNA level, 48 h; actives raise or lower the signal
Active and inactive are the calls of the source. Rule for the calls: active = hit-call score of the fitted dose curve at least 0.9, where 1 is the maximum; inactive = score below 0.9.
Give your call using only these classes: active, inactive

Recorded results for 5 compounds are shown here.
[[record]]
compound = "O=P(Oc1ccccc1)(Oc1ccccc1)Oc1ccccc1"
category = "active"

[[record]]
compound = "CC(C)(C)OOC(C)(C)C"
category = "inactive"

[[record]]
compound = "CCC1(c2ccccc2)C(=O)N=C(O)NC1=O (stereo not given)"
category = "inactive"

[[record]]
compound = "Nc1ccc2ccccc2c1"
category = "active"

[[record]]
compound = "COCCOCCO"
category = "inactive"


In: Hey, what did the test say about [N-]=[N+]=[N-] ?
Out: inactive

In: Hey, what did the test say about c1ccc(OP(Oc2ccccc2)Oc2ccccc2)cc1 ?
Out: inactive

In: Hey, what did the test say about c1nc[nH]n1 ?
Out: inactive

----------
ASSAY_TEXT: ATG_ISRE_CIS: Attagene CIS-FACTORIAL HepG2 Assay for human Interferon Regulatory Factor 1 (IRF1) binding to an Interferon-Stimulated Response Element (ISRE) (AID 2282948)
RUN_PARAMETERS: HepG2 ISRE cis-reporter (Attagene), mRNA transcription readout; actives raise or lower the signal
Calls of active or inactive are those of the source. The calls were made as follows: active = hit-call score of the fitted dose curve at least 0.9, where 1 is the maximum; inactive = score below 0.9.
Give your call using only these classes: yes (1) for active, no (0) for inactive

Recorded results for 5 compounds are shown here.
[[record]]
compound = "O=[N+]([O-])c1ccccc1"
category = "no (0)"

[[record]]
compound = "C=C(C)C(=O)OCC1CO1 (stereo unspecified)"
category = "no (0)"

[[record]]
compound = "ClC(Cl)=C(c1ccc(Cl)cc1)c1ccccc1Cl"
category = "no (0)"

[[record]]
compound = "CCOP(=S)(OCC)SCn1nnc2ccccc2c1=O"
category = "no (0)"

[[record]]
compound = "Cc1c([N+](=O)[O-])cc2c(c1[N+](=O)[O-])C(C)(C)CC2(C)C"
category = "no (0)"


In: Hey, what did the test say about COC(N)=O ?
Out: no (0)

In: Hey, what did the test say about Clc1ccc(Oc2ccccc2)cc1 ?
Out: no (0)

In: Hey, what did the test say about CCOC(=O)c1ccccc1C(=O)OCC ?
Out: no (0)

In: Hey, what did the test say about Cc1ccc(O)cc1C ?
Out: no (0)

In: Hey, what did the test say about OCC1CO1 (stereo unspecified) ?
Out: no (0)

In: Hey, what did the test say about N#C/C=C/c1ccccc1 ?
Out: no (0)

In: Hey, what did the test say about Cc1cc(C)c(C(=O)P(=O)(c2ccccc2)c2ccccc2)c(C)c1 ?
Out: no (0)
